Here is a set of molecules with reported IC50 for Muscarinic acetylcholine receptor M2 (Homo sapiens, UniProt P08172), compiled from the literature.
# assay_target: Muscarinic acetylcholine receptor M2 (Homo sapiens, UniProt P08172)
# Sequence (P08172 whole entry): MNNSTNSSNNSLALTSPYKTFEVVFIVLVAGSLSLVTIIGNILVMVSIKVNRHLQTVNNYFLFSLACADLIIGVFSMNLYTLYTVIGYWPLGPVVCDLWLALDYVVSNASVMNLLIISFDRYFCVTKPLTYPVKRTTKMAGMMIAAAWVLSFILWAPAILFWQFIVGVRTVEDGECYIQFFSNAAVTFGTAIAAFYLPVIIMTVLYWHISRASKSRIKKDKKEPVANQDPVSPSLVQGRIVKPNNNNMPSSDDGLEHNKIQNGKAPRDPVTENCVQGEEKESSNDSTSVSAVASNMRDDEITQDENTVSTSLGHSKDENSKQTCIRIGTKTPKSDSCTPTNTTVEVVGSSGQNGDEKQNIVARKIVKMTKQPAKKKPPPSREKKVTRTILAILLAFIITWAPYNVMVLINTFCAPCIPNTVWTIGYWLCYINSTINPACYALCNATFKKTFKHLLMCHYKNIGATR
So basically, if IC50 comes in under 2 µM it's 1, and if it's 2 µM or more it's 0.

molecule: O=C1CCC(c2ccccc2)(C2CCN(Cc3ccc(Br)cc3)CC2)C(=O)N1 (stereo in doubt; (-)-1a)
answer_label: 0

molecule: c1cnc2c(c1)CN[C@@H](CN(CCCCN1CCOCC1)[C@H]1CCCc3cccnc31)C2
answer_label: 0

molecule: CN(CCCCN(C[C@H]1Cc2ncccc2CN1)[C@H]1CCCc2cccnc21)C1CCOCC1
answer_label: 0

molecule: CCCCCCCCCCCC(OC(=O)C(CCCCN(O)C(C)=O)NC(=O)c1coc(-c2ccccc2O)n1)C(C)C(=O)NC1CCCCN(O)C1=O (stereo not drawn)
answer_label: 1

molecule: Cc1cc(N(C)CCN(C)C)nc2ccc(NC(=O)/C=C/c3ccc(OC(F)(F)F)cc3)cc12
answer_label: 1

molecule: N=C(Nc1ccc2c(c1)CCN2C1CCNCC1)c1cccs1
answer_label: 0

molecule: Cc1nc(C)c(-c2ccc(C3CCC(CC(=O)O)CC3)cc2)nc1C(N)=O (stereo not drawn)
answer_label: 0
